Measured IC50 values are reported for all entries that follow.
System: human MDM2 (GST-hMDM2 1-188), interaction with biotinylated-p53 (1-83) (Homo sapiens, UniProt Q00987)
Construct: Amino acid residues 1-188 of human MDM2 were expressed
Sequence (Q00987 1-188): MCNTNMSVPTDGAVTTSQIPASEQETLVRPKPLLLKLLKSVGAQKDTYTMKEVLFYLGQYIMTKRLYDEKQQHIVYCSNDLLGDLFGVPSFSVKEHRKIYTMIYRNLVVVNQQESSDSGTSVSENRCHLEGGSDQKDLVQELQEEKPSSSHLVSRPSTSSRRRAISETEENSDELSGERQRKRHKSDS
Experimental Protocol: improved HTRF assay (HTRF2 assay), inhibition of HDM2-p53 interaction
Condition Summary: 0.2 nM GST-hMDM2, 0.5 nM biotinylated-p53, 100 mM KF

Compound	IC50
CC[C@@H](CN(C)S(=O)(=O)C1CC1)N1C(=O)[C@H](Cc2nnn[nH]2)O[C@H](c2cccc(Cl)c2)[C@H]1c1ccc(Cl)cc1 (single isomer, unassigned) [Example 244]	0.001 µM
CC(C)(C)SC[C@H](C1CC1)N1C(=O)[C@@H](CC(=O)O)O[C@H](c2ccc(Br)c(Cl)c2)[C@H]1c1ccc(Cl)cc1 (single isomer, unassigned) [Example 322]	0.051 µM
O=C(O)C[C@H]1O[C@H](c2cccc(Cl)c2)[C@@H](c2ccc(Cl)cc2)N([C@H](CN(c2ccccc2F)S(=O)(=O)C2CC2)CC(F)(F)F)C1=O (single isomer, unassigned) [Example 278]	0.084 µM

----------
System: human MDM2 (GST-hMDM2 aa 1-188), interaction with biotinylated-p53 (aa 1-83) (Homo sapiens, UniProt Q00987)
Construct: Amino acid residues 1-188 of human MDM2 were expressed
Sequence (Q00987 1-188): as above
Experimental Protocol: Homogenous Time-Resolved Fluorescence Assay (HTRF1 assay), inhibition of HDM2-p53 interaction
Condition Summary: 2.5 nM GST-hMDM2, 5 nM biotinylated-p53, 200 mM KF
pIC50: −log10 of the molar value.
Please mark T if the recorded pIC50 is equal to or greater than 6, and F if it falls below.

Compound	Qualitative Label
O=C(O)C[C@H]1O[C@H](c2cccc(Cl)c2)[C@@H](c2nc3ccccc3s2)N(CC2CC2)C1=O (racemic)	F
O=C(O)C[C@@H]1O[C@H](c2cc(Cl)cc(-c3cncnc3)c2)[C@@H](c2ccc(Cl)cc2)N(CC2CC2)C1=O (single isomer, unassigned)	F
O=C(O)CC1O[C@H](c2cc(Cl)cc(Cl)c2)[C@@H](c2ccc(Cl)cc2)N(CC2CC2)C1=O (single isomer, unassigned)	T
O=C(O)C[C@H]1OC(c2cccc(Cl)c2)[C@@H](c2ccc(Cl)cn2)N(CC2CC2)C1=O (single isomer, unassigned)	F

----------
System: human MDM2 (GST-hMDM2 aa 1-188), interaction with biotinylated-p53 (aa 1-83) (Homo sapiens)
Construct: Amino acid residues 1-188 of human MDM2 were expressed
Experimental Protocol: Homogenous Time-Resolved Fluorescence Assay (HTRF1 assay), inhibition of HDM2-p53 interaction
Condition Summary: 2.5 nM GST-hMDM2, 5 nM biotinylated-p53, 200 mM KF
Measured IC50 values are reported for all entries that follow.
Assay Metric: IC50 (nM)

Molecule	Units Of Measure	Quantitative Readout
CS(=O)(=O)c1cc(Cl)cc([C@H]2O[C@H](CC(=O)O)C(=O)N(CC3CC3)[C@@H]2c2ccc(Cl)cc2)c1 (single isomer, unassigned) [Example 110]	nM	3700
O=C(O)C[C@H]1O[C@H](c2cccc(Cl)c2)[C@@H](c2ccc(Cl)cc2)N(C2CCC2)C1=O [Example 13]	nM	700
O=C(O)CC1O[C@H](c2cc(F)cc(F)c2)[C@@H](c2ccc(Cl)cc2)N(CC2CC2)C1=O (single isomer, unassigned) [Example 96]	nM	1100
N#Cc1cc(F)cc([C@H]2OC(CC(=O)O)C(=O)N(CC3CC3)[C@@H]2c2ccc(Cl)cc2)c1 (single isomer, unassigned) [Example 98]	nM	1800
O=C(O)C[C@@H]1O[C@H](c2cccc(Cl)c2)[C@@H](c2ccc(Cl)cc2)N(CC2CCCC2)C1=O [Example 29]	nM	300
O=C(O)CC1O[C@H](c2cccc(Cl)c2)[C@@H](c2ccc(Cl)cc2Br)N(CC2CC2)C1=O (single isomer, unassigned) [Example 80]	nM	14800
O=C(O)CC1O[C@H](c2cccc(F)c2)[C@@H](c2ccc(Cl)cc2)N(CC2CC2)C1=O (single isomer, unassigned) [Example 85]	nM	1600
O=C(O)C[C@H]1O[C@H](c2cccc(Cl)c2)[C@@H](c2ccc(Cl)cc2F)N(CC2CC2)C1=O (single isomer, unassigned) [Example 62]	nM	900
O=C(O)C[C@H]1O[C@H](c2cc(Cl)cc(-c3cn[nH]c3)c2)[C@@H](c2ccc(Cl)cc2)N(CC2CC2)C1=O (single isomer, unassigned) [Example 106]	nM	5200
O=C(O)C[C@H]1O[C@H](c2cccc(Cl)c2)[C@@H](c2ccc(Cl)cc2)NC1=O [Example 35]	nM	13000
O=C(O)/C=C1\O[C@H](c2cccc(Cl)c2)[C@@H](c2ccc(Cl)cc2)N(CC2CC2)C1=O (single isomer, unassigned; isomer 1) [Example 51]	nM	600
O=C(O)C[C@@H]1O[C@H](c2cccc(Cl)c2)[C@@H](c2cc3ccccc3[nH]2)N(CC2CC2)C1=O (single isomer, unassigned) [Example 2]	nM	31400
O=C(O)C[C@H]1O[C@H](c2cccc(Cl)c2)[C@@H](c2ccc(Cl)cc2)N(CC2CCCC2)C1=O [Example 28]	nM	500
C=CCN1C(=O)[C@H](CC(=O)O)O[C@H](c2cccc(Cl)c2)[C@H]1c1ccc(Cl)cc1 [Example 47]	nM	800
O=C(O)CC1O[C@H](c2cncc(Cl)c2)[C@@H](c2ccc(Cl)cc2)N(CC2CC2)C1=O (single isomer, unassigned) [Example 88]	nM	2100
O=C(O)CC1O[C@H](c2cc(F)cc(Cl)c2)[C@@H](c2ccc(Cl)cc2)N(CC2CC2)C1=O (single isomer, unassigned) [Example 83]	nM	300
CCCN1C(=O)[C@H](CC(=O)O)O[C@H](c2cccc(Cl)c2)[C@H]1c1ccc(Cl)cc1 [Example 49]	nM	600
C[C@@H](C1CCC1)N1C(=O)[C@H](CC(=O)O)O[C@H](c2cccc(Cl)c2)[C@H]1c1ccc(Cl)cc1 [Example 23]	nM	300
CC[C@@H](C(=O)OC(C)(C)C)N1C(=O)[C@@H](CC(=O)O)O[C@H](c2cccc(Cl)c2)[C@H]1c1ccc(Cl)cc1 (single isomer, unassigned) [Example 32]	nM	100
O=C(O)C[C@H]1O[C@H](c2cccc(Cl)c2)[C@@H](c2ccc(Cl)cc2)N(C2CCCC2)C1=O [Example 15]	nM	300
O=C(O)CC1O[C@H](c2cc(Cl)ccc2F)[C@@H](c2ccc(Cl)cc2)N(CC2CC2)C1=O (single isomer, unassigned) [Example 101]	nM	600
O=C(O)C[C@@H]1O[C@H](c2cccc(Cl)c2)[C@@H](c2nc3ccccc3s2)N(CC2CC2)C1=O (racemic) [Example 3]	nM	23500
O=C(O)C[C@H]1O[C@H](c2cc(Cl)cc(-c3cncnc3)c2)[C@@H](c2ccc(Cl)cc2)N(CC2CC2)C1=O (single isomer, unassigned) [Example 108]	nM	4300
O=C(O)CC1O[C@H](c2cc(F)cc(Cl)c2)[C@@H](c2ccc(Cl)cc2)N(CC2CC2)C1=O (single isomer, unassigned) [Example 84]	nM	300
COc1cncc([C@H]2OC(CC(=O)O)C(=O)N(CC3CC3)[C@@H]2c2ccc(Cl)cc2)c1 (single isomer, unassigned) [Example 92]	nM	19500

----------
System: human MDM2 (GST-hMDM2 1-188), interaction with biotinylated-p53 (1-83) (Homo sapiens, UniProt Q00987)
Construct: Amino acid residues 1-188 of human MDM2 were expressed
Experimental Protocol: improved HTRF assay (HTRF2 assay), inhibition of HDM2-p53 interaction
Condition Summary: 0.2 nM GST-hMDM2, 0.5 nM biotinylated-p53, 100 mM KF
Protocol: Residues 1-83 of human p53 were expressed as an amino-terminal AviTag™-TrxA-6xHis fusion protein (biotinylated p53) in E. coli. Each protein was purified from cell paste by affinity chromatography. Specifically, 10 uL of GST-hMDM2 was incubated with 10 ul of diluted compound (various concentrations, serially diluted) in 10% DMSO for 20 minutes at room temperature. […] Time-resolved fluorescence readings were measured on a microplate multilabel reader. […]
Measured IC50 values are reported for all entries that follow.

Compound	Comparative Sign	IC50, nM
NC(=O)C[C@H]1O[C@H](c2cccc(Cl)c2)[C@@H](c2ccc(Cl)cc2)N([C@H](CN(c2ccccc2)S(=O)(=O)C2CC2)C2CC2)C1=O (single isomer, unassigned) [Example 361]	<	1
CN(C)C(=O)C[C@H]1O[C@H](c2cccc(Cl)c2)[C@@H](c2ccc(Cl)cc2)N([C@H](CN(c2ccccc2F)S(=O)(=O)C2CC2)C2CC2)C1=O (single isomer, unassigned) [Example 366]	<	1
CC(C)(C)S(=O)(=O)C[C@H](C1CC1)N1C(=O)[C@@H](CC(=O)O)O[C@H](c2cccc(Cl)c2)[C@H]1c1ccc(Cl)c(F)c1 (single isomer, unassigned) [Example 308]	<	1
CC[C@@H](CS(=O)(=O)C(C)(C)C)N1C(=O)[C@@H](CC(=O)O)O[C@H](c2cccc(Cl)c2)[C@@]1(C)c1ccc(Cl)cc1 (single isomer, unassigned) [Example 163]	=	6620
CC[C@@H](CN(c1ccccc1F)S(=O)(=O)C1CC1)N1C(=O)[C@@](C)(CC(=O)O)O[C@H](c2cccc(Cl)c2)[C@H]1c1ccc(Cl)cc1 (single isomer, unassigned) [Example 330]	=	1
CC(C)[C@@H](CN(c1ccccc1F)S(=O)(=O)C(C)(C)C)N1C(=O)[C@@H](CC(=O)O)O[C@H](c2cccc(Cl)c2)[C@H]1c1ccc(Cl)cc1 (single isomer, unassigned) [Example 201]	=	2
CN(C(C)(C)C)S(=O)(=O)C[C@H](C1CC1)N1C(=O)[C@@H](CC(=O)O)O[C@H](c2cccc(Cl)c2)[C@H]1c1ccc(Cl)cc1 (single isomer, unassigned) [Example 301]	<	1
CCC[C@@H](CS(=O)(=O)C(C)(C)C)N1C(=O)[C@@H](CC(=O)O)O[C@H](c2cccc(Cl)c2)[C@H]1c1ccc(Cl)cc1 (single isomer, unassigned) [Example 194]	=	3
CC[C@@H](CN(c1ccccc1F)S(=O)(=O)C1CC1)N1C(=O)[C@@H](CCC(=O)O)O[C@H](c2cccc(Cl)c2)[C@H]1c1ccc(Cl)cc1 (single isomer, unassigned) [Example 262]	=	2
CC(C)(C#N)S(=O)(=O)C[C@H](C1CC1)N1C(=O)[C@@H](CC(=O)O)O[C@H](c2cccc(Cl)c2)[C@H]1c1ccc(Cl)cc1 (single isomer, unassigned) [Example 290]	<	1
CC[C@@H](CS(=O)(=O)CCN(C)C)N1C(=O)[C@@H](CC(=O)O)O[C@H](c2cccc(Cl)c2)[C@H]1c1ccc(Cl)cc1 (single isomer, unassigned)	=	3
CNC(=O)C[C@H]1O[C@H](c2cccc(Cl)c2)[C@@H](c2ccc(Cl)cc2)N([C@H](CN(c2ccccc2F)S(=O)(=O)C2CC2)C2CC2)C1=O (single isomer, unassigned) [Example 365]	=	2
C=CC[C@@H]1O[C@H](c2cccc(Cl)c2)[C@@H](c2ccc(Cl)cc2)N([C@@H](CC)CN(c2ccccn2)S(=O)(=O)C2CC2)C1=O (single isomer, unassigned) [Example 178]	=	182
CC[C@@H](CS(=O)(=O)C(C)(C)C)N1C(=O)[C@@H](CC(N)=O)O[C@H](c2cccc(Cl)c2)[C@H]1c1ccc(Cl)cc1 (single isomer, unassigned)	=	6
C[C@]1(CC(=O)O)O[C@H](c2cccc(Cl)c2)[C@@H](c2ccc(Cl)cc2)N([C@H](CN(c2ccccc2F)S(=O)(=O)C2CC2)C2CC2)C1=O (single isomer, unassigned) [Example 332]	=	27
CC[C@@H](CS(=O)(=O)C1CCC1)N1C(=O)[C@@H](CC(=O)O)O[C@H](c2cccc(Cl)c2)[C@H]1c1ccc(Cl)cc1 (single isomer, unassigned) [Example 141]	=	1
C[C@@H](CS(=O)(=O)C(C)(C)C)N1C(=O)[C@@H](CC(=O)N(C)C)O[C@H](c2cccc(Cl)c2)[C@H]1c1ccc(Cl)cc1 (single isomer, unassigned)	=	31
O=C(O)C[C@H]1O[C@H](c2cccc(Cl)c2)[C@@H](c2ccc(Cl)cc2)N([C@H](CN(c2c(F)cccc2F)S(=O)(=O)C2CC2)C2CC2)C1=O (single isomer, unassigned)	<	1
CC[C@@H](CS(=O)(=O)C(C)(C)C)N1C(=O)[C@@H](CC(=O)O)O[C@H](c2cccc(Cl)c2)[C@H]1c1ccc(Cl)c(F)c1 (single isomer, unassigned) [Example 183]	=	178
